For each record, write down the corresponding B-score functional assay.
measurement_target: human NTCP (Homo sapiens, UniProt Q14973)
Sequence (Q14973 whole entry): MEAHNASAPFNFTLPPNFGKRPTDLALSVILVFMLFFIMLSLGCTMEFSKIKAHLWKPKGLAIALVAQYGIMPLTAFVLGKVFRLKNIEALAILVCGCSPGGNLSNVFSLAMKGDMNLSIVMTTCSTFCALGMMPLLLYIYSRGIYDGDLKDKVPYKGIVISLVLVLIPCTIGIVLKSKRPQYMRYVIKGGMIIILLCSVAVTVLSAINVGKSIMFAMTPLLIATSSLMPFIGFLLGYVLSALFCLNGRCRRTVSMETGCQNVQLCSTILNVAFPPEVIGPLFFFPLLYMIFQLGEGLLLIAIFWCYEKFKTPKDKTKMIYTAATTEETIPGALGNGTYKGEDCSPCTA
measurement_description: Screening taurocholate uptake assay (96-well, [14C]taurocholate, 10 µM drug)
experimental_context: screening taurocholate uptake, 10 µM drug; B-score
Structures can show the parent of a compound that is named as a salt.

For record CC(N)CCCC(C)(C)O (stereo not drawn) [Heptaminol hydrochloride] the listed B-score functional assay is 2.111

For reference, reported B-score functional assay for CNCC(O)c1ccc(OC(=O)C(C)(C)C)c(OC(=O)C(C)(C)C)c1 (stereo not drawn) [Dipivefrin hydrochloride] stands at 1.926

The recorded B-score functional assay for O=C1c2cccc(O)c2C(=O)c2c(O)cccc21 [1,8-Dihydroxyanthraquinone] is 1.277

Lab book: B-score functional assay of O=C(NCCO[N+](=O)[O-])c1cccnc1 noted as 0.976

For each entry beneath this line, provide reported B-score functional assay.
1. CN(C)C(=O)Oc1ccc[n+](C)c1.[I-] [Pyridostigmine iodide]
2. COc1cc(C(=O)NCc2ccc(OCCN(C)C)cc2)cc(OC)c1OC [Trimethobenzamide hydrochloride]
3. CN1CCN(C(c2ccccc2)c2ccc(Cl)cc2)CC1 (stereo not drawn) [Chlorcyclizine hydrochloride]
4. CCCCC1(COC(=O)CCC(=O)O)C(=O)N(c2ccccc2)N(c2ccccc2)C1=O

[1.154, 2.997, 4.014, 1.433]

Form field B-score functional assay, entry CCc1nc(N)nc(N)c1-c1ccc(Cl)cc1 : 2.36

Value source: paper PMC5681660
